assay procedure: LogD measurement (n-octanol/phosphate buffer)
Type: physicochemical
details: n-octanol / 1 M phosphate buffer pH 7.4
measured attribute: logD

>>> print(df.to_string())
                                   compound  result
0  Oc1ccc2c(c1)O[C@@H](CNCc1ccc(OCC[18F])cc1)CC2 [[^18F]FEt-AMC13]    1.67
1  Oc1ccc2c(c1)O[C@@H](CNCc1ccc(OCCCC[18F])cc1)CC2 [[^18F]FBu-AMC13]     2.5
2  Oc1ccc2c(c1)O[C@@H](CNCc1ccc(OCCC[18F])cc1)CC2 [[^18F]FPr-AMC13]    1.98
3  Oc1ccc2c(c1)O[C@@H](CNCCN1CCN(c3ccc(OCC[18F])cc3)CC1)CC2 [[^18F]FEt-AMC15]    1.48
4  Oc1ccc2c(c1)O[C@@H](CNCCN1CCN(c3ccc(OCCC[18F])cc3)CC1)CC2 [[^18F]FPr-AMC15]    2.39
5  Oc1ccc2c(c1)O[C@@H](CNCCN1CCN(c3ccc(OCCCC[18F])cc3)CC1)CC2 [[^18F]FBu-AMC15]    2.71
